Test system: PDE1
TEST DETAILS: In vitro HTRF PDE1 inhibition assay
Assay type: biochemical
COND: HTRF cGMP assay, 100 nM cyclic GMP, PDE (1A3, 1B or 1C) with calmodulin, 45 minutes at 37° C.; isoform of the tabulated values not stated
pIC50: −log10 of the molar value.
compounds and their reported pIC50

These solved cases illustrate the format of a correct answer.
COMPOUND	pIC50
CCCn1ncc2c(=O)n3c(nc21)CN(c1ccc(Cl)c(Cl)c1)CC3	5.00 to 6.00
Cc1ncc(CN2CCn3c(nn4c(C5CCCC5)ncc4c3=O)C2)cn1	5.00 to 6.00
CC(C)c1nn(C)c2c(=O)n3c(nc12)CN(Cc1ccccc1)CC3	< 5.00
CC(C)n1ncc2c(=O)n3c(nc21)C(Cc1ccccc1)N(Cc1ccccc1)CC3 (racemic)	< 5.00
Cc1ccc(CN2CCn3c(nn4c(C5CCCC5)ncc4c3=O)C2)cn1	> 6.00

Task: // Input: CC(C)n1ncc2c(=O)n3c(nc21)CN(Cc1ccncc1)CC3 . Output its pIC50 only.
Result: 5.00 to 6.00

Task: Fill in pIC50 for record COc1ccc(CN2CCCn3c(nc4c(cnn4C(C)C)c3=O)C2)cc1
Result: 5.00 to 6.00

Task: Report pIC50, nothing else, for this compound: COc1cccc(CN2CCn3c(nc4c(cnn4C(C)C)c3=O)C2)c1
Result: 5.00 to 6.00
